All values here come from patent US20020177126A1.

The following binders are shown together with reported Mean IC50 (Curve), RSV microneutralization values.
Substrate: F protein of wild type RSV A/Long (respiratory syncytial virus, strain A/Long) (UniProt P12568)
Sequence (P12568 26-574): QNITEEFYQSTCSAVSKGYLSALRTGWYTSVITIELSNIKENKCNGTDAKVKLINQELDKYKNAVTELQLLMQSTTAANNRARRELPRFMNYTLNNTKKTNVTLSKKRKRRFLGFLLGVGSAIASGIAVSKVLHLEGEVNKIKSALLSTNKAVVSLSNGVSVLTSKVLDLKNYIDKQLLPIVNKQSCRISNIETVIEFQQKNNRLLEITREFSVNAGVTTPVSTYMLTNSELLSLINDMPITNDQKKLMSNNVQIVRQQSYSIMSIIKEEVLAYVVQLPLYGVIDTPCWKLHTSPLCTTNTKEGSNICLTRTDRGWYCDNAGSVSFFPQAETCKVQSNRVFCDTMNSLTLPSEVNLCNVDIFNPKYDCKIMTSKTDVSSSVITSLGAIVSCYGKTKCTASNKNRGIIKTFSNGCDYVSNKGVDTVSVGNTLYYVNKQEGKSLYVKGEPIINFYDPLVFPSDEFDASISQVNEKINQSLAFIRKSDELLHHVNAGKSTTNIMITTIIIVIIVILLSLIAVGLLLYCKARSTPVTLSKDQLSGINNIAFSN
method.notes: cell-based or functional assay
Please respond with the number in µg/mL and leave the unit unwritten.

Some binders with known Mean IC50 (Curve), RSV microneutralization results, for comparison:
[
  {
    "binder": "A4B4 (Fab) (Fab, V domains shown) VH: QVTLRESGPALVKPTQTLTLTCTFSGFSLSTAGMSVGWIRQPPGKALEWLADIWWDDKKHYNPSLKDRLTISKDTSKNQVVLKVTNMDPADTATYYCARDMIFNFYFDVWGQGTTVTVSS VL: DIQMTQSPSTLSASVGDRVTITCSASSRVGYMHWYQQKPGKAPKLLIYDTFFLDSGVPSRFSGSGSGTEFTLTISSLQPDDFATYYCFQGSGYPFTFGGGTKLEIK",
    "value.units": "µg/mL",
    "meas.value": 0.0414
  },
  {
    "binder": "A8c7 (Fab) (Fab, V domains shown) VH: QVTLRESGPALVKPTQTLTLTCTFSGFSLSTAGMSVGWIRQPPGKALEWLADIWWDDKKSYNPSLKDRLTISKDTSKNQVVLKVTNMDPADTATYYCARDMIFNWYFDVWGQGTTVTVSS VL: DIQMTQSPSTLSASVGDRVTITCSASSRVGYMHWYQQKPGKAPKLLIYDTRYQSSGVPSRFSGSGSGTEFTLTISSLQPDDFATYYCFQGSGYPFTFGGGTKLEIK",
    "value.units": "µg/mL",
    "meas.value": 0.177
  },
  {
    "binder": "A1h5 (Fab) (Fab, V domains shown) VH: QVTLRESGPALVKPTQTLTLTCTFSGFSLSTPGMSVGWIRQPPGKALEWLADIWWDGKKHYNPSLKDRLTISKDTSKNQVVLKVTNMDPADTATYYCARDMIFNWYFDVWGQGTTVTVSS VL: DIQMTQSPSTLSASVGDRVTITCSLSSSVGYMHWYQQKPGKAPKLLIYDTFFHRSGVPSRFSGSGSGTEFTLTISSLQPDDFATYYCFQGSGYPFTFGGGTKLEIK",
    "value.units": "µg/mL",
    "meas.value": 0.194
  }
]

Now examine the next entry.
GET /values?readout=Mean IC50 (Curve), RSV microneutralization&item= A17d4 (Fab) (Fab, V domains shown) VH: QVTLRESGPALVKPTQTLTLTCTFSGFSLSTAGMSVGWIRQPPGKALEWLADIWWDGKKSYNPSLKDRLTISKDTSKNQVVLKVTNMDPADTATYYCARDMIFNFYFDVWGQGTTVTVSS VL: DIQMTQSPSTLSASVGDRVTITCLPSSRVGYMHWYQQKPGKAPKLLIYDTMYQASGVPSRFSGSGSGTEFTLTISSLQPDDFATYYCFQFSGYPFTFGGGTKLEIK 0.0179
